# assayed-system: human JAK3 (a.a. 781-1124) (Homo sapiens, UniProt P52333)
# Construct: JAK3 (a.a. 781-1124); His tag (N); made in house; host or cells: insect cells (baculovirus)
# Sequence (P52333 781-1124): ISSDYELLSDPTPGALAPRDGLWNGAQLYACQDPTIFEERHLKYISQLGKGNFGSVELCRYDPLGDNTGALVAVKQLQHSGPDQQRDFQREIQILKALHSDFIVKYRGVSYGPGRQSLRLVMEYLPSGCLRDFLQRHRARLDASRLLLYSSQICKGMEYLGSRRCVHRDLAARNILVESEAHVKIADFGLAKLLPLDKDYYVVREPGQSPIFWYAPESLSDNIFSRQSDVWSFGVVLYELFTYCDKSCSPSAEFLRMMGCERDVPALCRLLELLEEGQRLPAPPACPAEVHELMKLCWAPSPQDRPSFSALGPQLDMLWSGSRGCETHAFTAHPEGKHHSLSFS
# protocol-notes: In vitro JAK kinase assay (HTRF, phosphorylation of a biotinylated peptide), JAK3
# Type: biochemical
# condition-info: method AA1 (3 μM ATP) or AA2 (1000 μM ATP), not stated per value
pIC50: −log10 of the molar value. Counter-ions that a name gives are not always drawn.
endpoint-name: pIC50

Known pIC50 results, listed for orientation:
Cc1cc(C(=O)N2CCC(CC(=O)Nc3ccc4cc3CCc3cncc(c3)Nc3ncc(Cl)c(n3)N4)CC2)no1 [Example A101, bis(trifluoroacetate)] = 6.89
O=C(CC1CCN(C(=O)c2ccon2)CC1)Nc1ccc2cc1CCc1cncc(c1)Nc1ncc(Cl)c(n1)N2 [Example A135, bis(trifluoroacetate)] = 7.10
NS(=O)(=O)N1CC[C@@H](C(=O)Nc2ccc3cc2CCc2cccc(c2)Nc2ncc(Cl)c(n2)N3)C1 [Example A74, trifluoroacetate] = 8.48
NS(=O)(=O)N1CCCC(C(=O)Nc2ccc3cc2CCc2cccc(c2)Nc2ncc(Cl)c(n2)N3)C1 (stereo not drawn) [Example A73, trifluoroacetate] = 8.52
O=C(COc1ccc2cc1CCc1cccc(c1)Nc1ncc(Cl)c(n1)N2)N1CCN(C(=O)Nc2ccccc2)CC1 [Example A13, trifluoroacetate] = 7.36

[I] O=C(CC1CCNCC1)Nc1ccc2cc1CCc1cncc(c1)Nc1ncc(Cl)c(n1)N2 [Example A71, tris(trifluoroacetate)]
[II] O=C(Nc1ccc2cc1CCc1cccc(c1)Nc1ncc(Cl)c(n1)N2)C1CCN(C(=O)Nc2ccc(Cl)nc2)CC1 [Example A40, bis(trifluoroacetate)]
Request: I'm curious whether I or II has the smaller pIC50 number. Which is it? Reply with the label of the item you choose.
Response: I
